experiment: Biodistribution in HEK293-hsst2A+ tumor-bearing mice; assay type: in vivo; conditions: mouse, intestines, iv, total radioactivity; HEK293-hsst2A+ tumor SCID mice, 4 h pi + co-injection of 35 nmol DP2; mean ± SD; read-out: Intestines uptake, blocked
value type: tissue uptake at 4 h (%ID/g)

1. C[C@H](NC(=O)CN1CCN(CC(=O)O)CCN(CC(=O)O)CCN(CC(=O)O)CC1)C(=O)NCC(=O)N[C@H]1CSSC[C@@H](C(=O)O)NC(=O)[C@H](CO)NC(=O)[C@H]([C@@H](C)O)NC(=O)[C@H](Cc2ccccc2)NC(=O)[C@H]([C@@H](C)O)NC(=O)[C@H](CCCCN)NC(=O)[C@@H](Cc2c[nH]c3ccccc23)NC(=O)[C@H](Cc2ccccc2)NC(=O)[C@H](Cc2ccccc2)NC(=O)[C@H](CC(N)=O)NC(=O)[C@H](CCCCN)NC1=O [[^111In]AT2S, metal not drawn] ... 1.74
